Hello, the source for this data is the NTF2 design screens of Basanta et al. (2020), in case you need it.

experiment: protease stability score; higher = more stable; yeast display proteolysis, trypsin and chymotrypsin;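 also: log10 excess protease needed over predicted unfolded state with 0 meaning unfolded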
Outcome label depends on protease stability score relative to 1: at/above gives label 1, below gives label 0.

>>> classification("DEDQATEVAELVKSNDWENLRRNIDPNARMHIGDRTLHGREEIAEVFRRIVEQADHQRLHHLEVEGDTIVIRMTVNINGKEVDFRMKIQFHNGKIKEVRVDFTDPKERKVFDKAAR")
"label 1"
>>> classification("DHHHARELLTRVIRALITGDEKKVADQIDPNAEFQYGDKTFHGRDQVRRFVKEWKKHVDHVELKTYDARGDKAKAIFVVDHNGHKKQVVLQLKVENGRVKSIRITDG")
"label 1"
>>> classification("DEKQVVKVAKRVVQAVFEGDEELMKKMGKEDVEVEVGDTKYKGVDQAVDLVRKYKEFGLEFELKKYEVKGDTVTFHAKLYAGDKTIDVTVHYRADDGKMDETKVELSEEADKAFKQH")
"label 1"
>>> classification("DEENVDRAERLLDALRSGNPNTVRELMDKHVKIQIGDKHLHGREQADKKAEDDSKEINEEVKSVDVKATGNNVVIDMDVSATVDGRPVTFHRVLVIRMHNGKIQEIEIRMSEDDIRNYKK")
"label 0"
>>> classification("DEEAVRHYHEMVREEETGNEDEAMKYFDPNATVRIGDKTVKGKDSIRKWVRDRRDEMRVEIHQLNVHVSNGQIDVSVDFTKEHNGRPQTMQQKVRVTATNGKIKKVNNHDDG")
"label 0"
>>> classification("DEEAERIIERYLEAVKTNDPEQMKEMADPNVKVKVGDKVIHGMEDAVKKVQHRLDEQRVEIKHVTLKVRNGRVNVEADVVVTHNGRPDRSKYHIDMEAHNGSAVYVRITDVS")
"label 1"
>>> classification("DSHAHNVADEVMRALQENDEDSLRQLLDPNVEFHIGDTTYHGREQVRHWITRLKEQMRVKFDLKDLKVQGDTVHIKLRLEQEHNGQPRQHNVVINVKIDNGRVKKISFQHTK")
"label 1"
>>> classification("DSERAKEVVKEFEHNDRQKFRDLFDEDASVTIGNRTYHGRHEVERALKRHIDRVDHVKINSVQIRGERIHMEAVFNINGQEFTLQMTLQLSNGKVKTWVLRVTDPDLKRKLHKNME")
"label 1"
>>> classification("DEKRYKELFETVFKMVINGDEEDVKKIINPNGKYQYGDKEFEGPEVAHELVRVVKEMGAEVKETRYEVNGDTARADFKYINGDQEVTTTAEAVYKGDKMEEARVHISEEVKKVLHQG")
"label 0"
>>> classification("DEEVLEEAKKRVETNDPQEFAHNVDENAEMTIGDKQYTGRDQFKHVADAWYERADKIEIKSYTTHNGKIHVNMRMRFDGRDIVFIVEFRVKNGRVQEYKFHVRDETAKTLQQQMLS")
"label 0"

* * *

experiment: protease stability score; higher = more stable; yeast display proteolysis, trypsin and chymotrypsin;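 also: log10 excess protease needed over predicted unfolded state with 0 meaning unfolded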
Would you mind classing the entries by protease stability score? Ranges: 1 = under -0.006, 2 = from -0.006 up to 0.3, 3 = 0.3 and over

>>> classification("EEETVKRMAEHVNHALQENDPKKMNDLFDENVQVDVGDTRIHGREDLTKYVKTFKQRVDQVEIQRVDVQGNTVVILMVLEHNGHRRQVVVIMHFHNGKVKEMRVTDK")
2
>>> classification("DKKLSRQFREFWRAMEDGDPDKLRENADPNVKYVVGDKTIHGRETYVKEAQDRRREMRVELDTMSINDKGERITVEYVQVNEHNGRPKQAVYRQVILFKNGRIKEVRQTKTD")
1
>>> classification("DEEKNRTAARRAAEVLRTNDPDEMSKLADKDATARIGDKHFHGKETLKEAMEELKRQVDHLRVESFRLDGDKIVITAVMSHNGKKQKIVVVAEVENGKVVDFKMDPDQVTRMQK")
3
>>> classification("DEKKVLEVIQKFAEAIKDGNAEQAKKLGKEGIQVHIGDETINGPDQVEKYVKKVKDLGNEVHYKEKEVKGDEVTVHTEVKMGDQTVHFEVHYRAKDDKVEQFHVKFDKDEARRFKTS")
1
>>> classification("DEQEDRDRLEEALHAVMTGDEDRLMELADPNVEIQIGDKTFHGNTEARKVVETLKRKVDHLRVEEITKRPGSAFVIAVMEVNGKQVTVTVRIQAENGRIVHVSMNPKQLQDLKS")
3
>>> classification("DDRQVEELVRIMQRGNFKDLASNLDENVHVKVGNRTYHGREKAETVFNRLQQRIDHYEIIHVQERPNRAQVRFRFRVNGRTVEATVKAQAHNGRIKEMNLQARDEDAQREIDHAID")
3
>>> classification("DEERKEQLLEIYKAIDTGNPEKVKELADPNAHVQYGDKSVHGMDDAVRQLEKRRKEIRIHWDVKSVHVEGNKVDVVAENEEEHNGHPRSHTVRVNAEFQGDKMKNAHYQSDK")
1
>>> classification("DEHKLQQVFEKFLKAFNTGDRDLARKLMDPNVKLDVGDKTYHGREQAMRWMHQVRQKADHIQVQSMESSGNKATVDIVIEHNGKSTSEVIRLEVENGHFRHVRKDSP")
2
>>> classification("DEEHLLSRLAKEFWEDWKQGDPNKASKQADKDVHVQIGDKEYHGREHLERLFKEVKKDVDHNTSRITDLKVDENHIDLKVSFSMNVNGQNITMVVDVKMRIVNGHAKAVDIKYK")
3
>>> classification("DPKKFHKAAVLLAQAAMNGDYKRVVELYKPDARLTLVDQEVQGQEQIKKHAKKFYDRGKRFQFKRVEVTGDYVKLQFDIEVGGTRVTFEARVHAQDDTVDEYELRFDDTAREMQERG")
2
>>> classification("DEEKLVQLMDKAFKFIVNGNTEEAQKMGADNVRYEYVDKKYEGPDVAKKMAQLMQKVGVERTVKRQELKGDQATADFDYRKGDKEYRTTAEVKYEGDKIKEARVEVTDEVKEVVHQG")
1
>>> classification("DSKELARRFHTELLENLRHNDSERLRRLLDEDARVHVGDKEVHGREQFADEQTKIMEHFDRVELRIREVTIEEGRVKVLIHFDADNNGEKHTDNSEVTFDNQGDKLTNKTQHES")
1
>>> classification("DDKDMEQIKRLIEQLLTGDPDSAKRNFDENARVTIGDKTIEGRDDMRRWVDTVHKHAQLEITHMTVKVHGDKVKVNMDARRTHNGRPERATFKMDVELQNGKVKNQSIEIRK")
2
>>> classification("DEKEVKDNAHDLFRAMQTGDEQEIENLMDENVEAQVGDTTWHGREEAARELVLTQKRYDRVRVDRIQVTGEDVKIDFKLNIDGTKETHILVMRVHNGKIVSMSNETR")
3
>>> classification("DEEIRDEIKKYFKALETGDPDKMREMFDPNAKVQVGDKVYHGMSEAARHWVRRAEKIRIEIQDLNIDVHGEDVVVEQVLVEDKNGRPQRKTERLTMDVEDGRVKRAHRHSVK")
2
>>> classification("DDRVADLLRKWWEAVRTGDPDRAANQVDPNAKVEYGDKQVHGREQIRTELDERKRNAKFEYKIKTYNKDEDHVKVEAEAVVVINGRPHKFTYQVHARADGDKIKHMRIELPEDVLHEMQG")
3
>>> classification("DEEAHEVIDTLRKAQETGDRNTARSLIDPNATFQVGDNVIRGREEYVRDLVRHRDQIRVELKHLSQTFSNGKMRMTQEAVYDINGRPDRVEFTASATIHNGRVKHMTVQVPPEQVKRLER")
1
>>> classification("DEEAQKQAEHLIRNLEQGNEDQIERLADPNARFQYGNKEINGREEMSTWVRRYKKQARLEIKSVSADAQGDKITVDVHFVIDINGRPSTMRVNVVMSIDNGSINHMVFEIDEEQEKELNK")
2
>>> classification("DEERVKQVQKKAFEAVMKGNDDEMRKIGKPNVRYEYIDEKNEGQEAVDVVIQLVKKVGAEAKVRRTEVKGDTVRAIFVYNDGDQTVQTKVEVKYEGDKVKEARVELTDEVQKVLHKG")
1
>>> classification("DEDRMRELMKVMMDAVRNGNQEQAYKVMDEGGEFHVGDKTVRGPEQVKEYVKEVQDWGNHVEYKETHYEGDTATVKTQAHLGDVTVDFEVHYVVKGNKLKRFEVRFNKEQIKEFKKS")
3

* * *

experiment: protease stability score; higher = more stable; yeast display proteolysis, trypsin and chymotrypsin;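 also: log10 excess protease needed over predicted unfolded state with 0 meaning unfolded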
parameter: protease stability score

>>> value_measured("DEEHAHEMLKVVKVLIEGDPDQAHDMVDPNARFKVGDQTFSGRESFRNHVRHTNEESSLHLKSLDAQDHGDKVTIKVEFVRDTNGNPRHMRLEVRARLHNGRVTHAEFEDRK")
-0.001
>>> value_measured("DEERNERHAQDLMRALENNDEERLRQLLDKDAKLNVGDHEIHGSENIVKRLAEFLKRADHLRFERMTVRGDTVQISFEVEHDGERRKYEVHITVHNGHVQSITIQKQ")
2.49
>>> value_measured("DDENRHMAEEMMQIFKHGDHDRHRQLIDPNVKVKIGDKEYHGMEKLVQRHKEEVDQIRFEVKTVSVHNQGDKLKVEWRYVADFNGRPHDVRDDYTIDVRNGKVRSIDYNVDPRELETLLR")
-0.128
>>> value_measured("DERAHSHVEDFFRNLKSGNEDEIRKLLDPNARIKVGDKVIHGRDDAKRYVQQQKREMRMEYDVKTVDAQGDKIQVQVNVTQQHNGRPVQYQQNLHMTVENGDIHTVNYQMDTRIERVQES")
-0.231
>>> value_measured("DDDRKARDFWRKFKEVLDKGDSEENDKLVDENAKFEYGDKTLHGREDAMRWNKHLTTRVDHLRMEVEDFKVHNGKIDVQVRLDVNVNGQQRQHDVKLVAEIDGDKVKLHSLTVK")
0.009
>>> value_measured("DDEKARRWLHTMRDVINRGDPDKWRKLVDENVRLEIGDKEYHGREDARKWMKELRDQVDEIHIKTISAHGDKIEVTMEYKHNGRTRRITVVARIRDGRIKMVQVRDS")
1.8
>>> value_measured("DEDFWERVESMLRLWKHGNEDEWSKNADPNVRYVYGEKVVTGREQAKHMFRKVKDEIRFTFEFKRVRIQGDTIEAKFEFRADRNGKPRSANATVTIRFEGDKVHDNDVKSQS")
0.42
>>> value_measured("DEQDQARRIVRHLLSAIRNNDPHRFQNNVDENVTLQYGDKTYNGDEDVHKYIEQFKREQKNARLRLLRLRIDNGRIDVIVRLRADHNGKEIRQIIVFHLVVRNGQARVETAHEG")
1.17
>>> value_measured("DEQEHAKRVVRRLIDAFKDGDPKTYAQQLDPNVRIQIGDKEITGREKVREEFRTVRQRVDHVNLHVKRVDVNGDKIVVQIRVVRKHNGRTEQRTLVVEVRDHNGREVVKHVSFK")
0.884
>>> value_measured("DEDKEDRVVKTFLTAVRTGDPHTARNMLDENARVHIGEKNFHGKERASEAIKEFRDQVDEVHIRTIKVRGDRFNIDMTLHFNGKNADLTVNVRVHNGKIQDVQFDPDQMQHLQG")
0.86
>>> value_measured("DEEINKQIRTMIESRTHGDEEDELRNADPNAKFRIGDKDYHGKEELKKWVKTQHDQAHVEFIIRSVRVHGNKVSMDMQVVLNVNGRPETIDASMSAEVDNGRFKRIDIHLDPDRVRTALQ")
1.16
>>> value_measured("DEHELRRQADDFWHAVRTGDEKRIVELLDPNAHAVVGDKRYHGEKQIRQLVRSMREQVDTFRVSSITVSGDDIEIDIVLNVNGREFRATIVLRQHNGKVTELKLHPNINRALES")
1.28
>>> value_measured("DEEVAKKMMETWQKVVQKGNDKDARELYKPNGEWVDGDEKHQGVDYVVKALQRVKKYGAEFQVRKAKVEGDTATMVYDLRIGDKTVTFVVQMQADGGRVERVQVKMNEEAKKAVTHG")
0.786
>>> value_measured("DEEKVSEAHEFMQDVQNGDEKSLNDLMDKNDEVNVGDKTVHGREDFTRQFQKRRKELRLNIQSVSATRHGDSVVVHVQAQRNHNGNPEESRYVVILSKHNGRIQNVDVKEDK")
0.919
>>> value_measured("DHSKHLTNVIKRMQRLFKHGNFSEVAKQADKDVEVRVGDKTYNGRDQYVDSQRKIEHQVDNADLKFQHVDNQGDKIDVIYEFVVVHNGRHEKTTEQAVLSLHNGRVRATKIHDS")
-0.102
>>> value_measured("DEEAHKLMEEMMRAWKHGDSQRVADLVDPNARVKIGDKEVRGHEQIKELVHTLKTEMRIEYQSISAENHGNHVEVDARLSVESNGKPEQVDFKLRLVVQNGRIREISADYKP")
-0.035
>>> value_measured("DDERRKKQVDTFNKAFEKGDESQIRKLFDKDAKARVGDKHYHGKEQVARMVKTFVHQVDHMQFKSVRVQGDKVRADVTVKVNGNTARFTIEIRIHNGKIQHASIDPRNMEKMKR")
-0.073
>>> value_measured("DEEKVKNHILEALNAMMTGDPDKVRRMVDKDARLRIGEKVFHGREEVSKAAEEFREQFDHITITDYRVEPGHARVHAVINVNGKNVEITIKATATNGKIQRIVLDPRAVERLKS")
0.926
>>> value_measured("DDERRARDLFKEHEDNWKNGNHEELVKQADEDARVDVGDKELHGRDDLRRENRRIVEQADHIRFDLKSLDVQGDKVTFDFVVKVDINGRTETRRVQEKFVVTNGRIRLKEATEG")
-0.009
>>> value_measured("DDDARDLMKEVLTAQKNNDPKHVRKLFDPNANIKYGDREVTGMDHAAKTLVDHIQQIRLQIDSVTLEVQGDTIIVHAQMVNDRNGNPDSTRFVLEAKVDGDKFKSQDKQEDS")
-0.524
>>> value_measured("DEEDLKEFVKILKEGDPEKLKKMVDENVTIEIGDKRVSGKEKARDLAENFRERVDSHHIHRVDIEGERMVVDVEVSVNGRRIRYTLFAEVHNGKLKQQSVQYTSEEQRKLLTEMWT")
0.3
>>> value_measured("DEKKLLEIAKEVADYVRNGNADQVAKLGKEGIQANFGDEQVNGPDQMREYVKKVKDLGLHAEYKEEKYEGDTVELHTQAHLGDVTADFTVTYIVKGDKLDKVEVRFNKEQMKKFKTS")
0.007
